Where do these numbers come from? They come from patent US20260083865A1.

- test target: PSMA-expressing C4-2 cells (Homo sapiens)
- Construct: PSMA-expressing C4-2 cells (ATCC, Cat. No. CRL-3314) were cultured in RPMI-1640; host or cells: C4-2 cells
- Sequence (Q04609 whole entry): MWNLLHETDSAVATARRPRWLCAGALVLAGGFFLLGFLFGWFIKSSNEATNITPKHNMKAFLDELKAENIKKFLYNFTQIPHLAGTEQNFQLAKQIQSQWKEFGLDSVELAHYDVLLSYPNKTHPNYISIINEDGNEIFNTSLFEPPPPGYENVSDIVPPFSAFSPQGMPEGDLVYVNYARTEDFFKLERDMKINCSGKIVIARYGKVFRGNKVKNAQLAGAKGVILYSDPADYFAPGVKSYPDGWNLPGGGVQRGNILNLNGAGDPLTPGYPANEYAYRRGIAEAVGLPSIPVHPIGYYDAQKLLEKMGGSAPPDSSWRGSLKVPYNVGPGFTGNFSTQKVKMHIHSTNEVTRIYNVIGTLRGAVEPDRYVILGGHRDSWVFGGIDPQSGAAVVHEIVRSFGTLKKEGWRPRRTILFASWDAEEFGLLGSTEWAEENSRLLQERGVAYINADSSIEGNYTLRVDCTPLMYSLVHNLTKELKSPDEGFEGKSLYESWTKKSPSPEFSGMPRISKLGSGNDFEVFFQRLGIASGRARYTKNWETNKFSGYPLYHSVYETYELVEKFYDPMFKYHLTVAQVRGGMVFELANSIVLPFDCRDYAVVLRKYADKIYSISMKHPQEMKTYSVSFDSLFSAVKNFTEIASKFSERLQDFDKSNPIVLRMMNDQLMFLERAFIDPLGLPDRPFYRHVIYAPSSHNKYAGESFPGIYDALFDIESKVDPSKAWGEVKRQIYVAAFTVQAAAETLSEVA
- assay: FACS binding assay (competition with 50 nM PSM-0183)
- conditions used: pIC50 category of FACS binding, C4-2 cells; read-out: pIC50 [C4-2] CAT (converted)
Numbered stars: 1 amine (or outer) side, 2 acyl side, 3 side chain; on linkers, the order of the positions; unused ones are H or OH. Bridge positions count the residues as written; N and C are the ends. Square brackets hold non-standard residues; d marks the D form. Side chains are listed from the residue outwards. Peptide text beside a SMILES is read from it. * marks the point of attachment. X12 = O=C(O)CN1CCOCCN(CC(=O)O)CCN(CC(=O)*)CCOCCN(CC(=O)O)CC1; DOTA = O=C(O)CN1CCN(CC(=O)O)CCN(CC(=O)*)CCN(CC(=O)O)CC1; Phe(4-SO3H) = N[C@@H](Cc1ccc(S(=O)(=O)O)cc1)C(=O)O; Phe(4-Cl) = N[C@@H](Cc1ccc(Cl)cc1)C(=O)O; Arg(Me) = CNC(=N)NCCC[C@H](N)C(=O)O; X4 = O=C(CN1CCC(N[*:1])CC1)[*:2]; X1 = O=C(CC1CCN([*:1])CC1)[*:2]; Lys(Me) = CNCCCC[C@H](N)C(=O)O; Tle = CC(C)(C)[C@H](N)C(=O)O; αMeP = C[C@@]1(C(=O)O)CCCN1; 4Abz = Nc1ccc(C(=O)O)cc1; Nle = CCCC[C@H](N)C(=O)O; Dap = NC[C@H](N)C(=O)O; Aib = CC(C)(N)C(=O)O; CO = O=C([*:1])[*:2]; Guanidino = N=C(N)N*
Please go through the items and note down their IC50.

Q: Fill in: IC50 of CC(=O)NC(C)(C)C(=O)N[C@@H](Cc1ccc(Cl)cc1)C(=O)N[C@H]1CSSC[C@@H](C(=O)N[C@H](C(=O)N[C@H](C(=O)N[C@H](CCCCNC(=O)CN2CCN(CC(=O)O)CCN(CC(=O)O)CCN(CC(=O)O)CC2)C(N)=O)[C@@H](C)O)C(C)(C)C)NC(=O)[C@H](CC(N)=O)NC(=O)C(C)(C)NC(=O)[C@H](CCCNC(=N)N)NC(=O)[C@H](CCCCN)NC1=O [PSM-0404] (Ac-[Aib][Phe(4-Cl)]CKR[Aib]NC[Tle]T[dK](DOTA)-NH2; disulfide 3-8) is ___
Ans: < 200 nM

Q: Same question, CC(=O)N[C@H](C(=O)NC(C)(C)C(=O)N[C@@H](Cc1ccccc1)C(=O)N[C@H]1CSSC[C@@H](C(=O)N[C@H](C(=O)N[C@@H](CC(C)C)C(N)=O)C(C)(C)C)NC(=O)[C@H](CC(N)=O)NC(=O)C(C)(C)NC(=O)[C@H](CCCNC(=N)N)NC(=O)[C@H](CCCCN)NC1=O)[C@@H](C)O [PSM-0453] (Ac-T[Aib]FCKR[Aib]NC[Tle]L-NH2; disulfide 4-9) this time
Ans: < 200 nM

Q: Same question, C[C@@H](O)[C@H](NC(=O)[C@@H](NC(=O)[C@@H]1CSSC[C@H](NC(=O)[C@H](Cc2ccc(S(=O)(=O)O)cc2)NC(=O)C(C)(C)NC(=O)[C@@H](NC(=O)CC2CCN(C(=O)CN3CCN(CC(=O)O)CCN(CC(=O)O)CCN(CC(=O)O)CC3)CC2)[C@@H](C)O)C(=O)N[C@@H](CCCCN)C(=O)N[C@@H](CCCNC(=N)N)C(=O)NC(C)(C)C(=O)N[C@@H](CC(N)=O)C(=O)N1)C(C)(C)C)C(N)=O [PSM-0386] ({DOTA}-[X1]T[Aib][Phe(4-SO3H)]CKR[Aib]NC[Tle]T-NH2; disulfide 5-10) this time
Ans: > 3160 nM

Q: Same question, CCCC[C@H](NC(=O)[C@@H]1CSSC[C@H](NC(=O)[C@H](Cc2ccccc2)NC(=O)[C@H](C)NC(=O)[C@H](C)NC(C)=O)C(=O)N[C@@H](CCCCN)C(=O)N[C@@H](CCCNC(=N)N)C(=O)N[C@@H](C)C(=O)N[C@@H](CC(N)=O)C(=O)N1)C(=O)N[C@H](C(=O)N[C@@H](CC(=O)O)C(N)=O)[C@@H](C)O [PSM-0491] (Ac-AAFCKRANC[Nle]TD-NH2; disulfide 4-9) this time
Ans: 200 to 1260 nM

Q: Same question, C[C@@H](O)[C@H](NC(=O)[C@@H](NC(=O)[C@@H]1CSSC[C@H](NC(=O)[C@H](Cc2ccc(Cl)cc2)NC(=O)C(C)(C)NC(=O)[C@@H](NC(=O)CC2CCN(C(=O)CN3CCN(CC(=O)O)CCN(CC(=O)O)CCN(CC(=O)O)CC3)CC2)[C@@H](C)O)C(=O)N[C@@H](CCCCN)C(=O)N[C@@H](CNC(=O)NC(=N)N)C(=O)NC(C)(C)C(=O)N[C@@H](CC(N)=O)C(=O)N1)C(C)(C)C)C(N)=O [PSM-0546] ({DOTA}-[X1]T[Aib][Phe(4-Cl)]CK[Dap]([CO-Guanidino])[Aib]NC[Tle]T-NH2; disulfide 5-10) this time
Ans: < 200 nM

Q: Same question, CC(=O)N[C@H](C(=O)N1CCC[C@@]1(C)C(=O)N[C@@H](Cc1ccccc1)C(=O)N[C@H]1CSSC[C@@H](C(=O)N[C@H](C(=O)N[C@H](C(N)=O)[C@@H](C)O)C(C)(C)C)NC(=O)[C@H](CC(N)=O)NC(=O)C(C)(C)NC(=O)[C@H](CCCNC(=N)N)NC(=O)[C@H](CCCCN)NC1=O)[C@@H](C)O [PSM-0508] (Ac-T[αMeP]FCKR[Aib]NC[Tle]T-NH2; disulfide 4-9) this time
Ans: < 200 nM

Q: Same question, CNCCCC[C@@H]1NC(=O)[C@@H](NC(=O)[C@H](Cc2ccc(Cl)cc2)NC(=O)C(C)(C)NC(=O)[C@@H](NC(=O)CC2CCN(C(=O)CN3CCOCCN(CC(=O)O)CCN(CC(=O)O)CCOCCN(CC(=O)O)CC3)CC2)[C@@H](C)O)CSSC[C@@H](C(=O)N[C@H](C(=O)N[C@H](C(N)=O)[C@@H](C)O)C(C)(C)C)NC(=O)[C@H](CC(N)=O)NC(=O)C(C)(C)NC(=O)[C@H](CCCNC(=N)NC)NC1=O [PSM-0495] (X12-[X1]T[Aib][Phe(4-Cl)]C[Lys(Me)][Arg(Me)][Aib]NC[Tle]T-NH2; disulfide 5-10) this time
Ans: < 200 nM

Q: Same question, C[C@@H](O)[C@H](NC(=O)[C@@H](NC(=O)[C@@H]1CSSC[C@H](NC(=O)[C@H](Cc2ccccc2)NC(=O)C(C)(C)NC(=O)[C@@H](NC(=O)CN2CCC(NC(=O)CN3CCN(CC(=O)O)CCN(CC(=O)O)CCN(CC(=O)O)CC3)CC2)[C@@H](C)O)C(=O)N[C@@H](CCCCN)C(=O)N[C@@H](CCCNC(=N)N)C(=O)NC(C)(C)C(=O)N[C@@H](CC(N)=O)C(=O)N1)C(C)(C)C)C(N)=O [PSM-0543] ({DOTA}-[X4]T[Aib]FCKR[Aib]NC[Tle]T-NH2; disulfide 5-10) this time
Ans: < 200 nM

Q: Same question, C[C@@H](O)[C@H](NC(=O)[C@@H](NC(=O)[C@@H]1CSSC[C@H](NC(=O)[C@H](Cc2ccccc2)NC(=O)C(C)(C)NC(=O)[C@@H](NC(=O)c2ccc(NC(=O)CN3CCN(CC(=O)O)CCN(CC(=O)O)CCN(CC(=O)O)CC3)cc2)[C@@H](C)O)C(=O)N[C@@H](CCCCN)C(=O)N[C@@H](CCCNC(=N)N)C(=O)NC(C)(C)C(=O)N[C@@H](CC(N)=O)C(=O)N1)C(C)(C)C)C(N)=O [PSM-0448] ({DOTA-4Abz}-T[Aib]FCKR[Aib]NC[Tle]T-NH2; disulfide 4-9) this time
Ans: < 200 nM
